Measured IC50 cell viability of individual entries
- Test system: HCT116
- measurement.conditions: 72 h; ICRF193 0 nM
Structures can show the parent of a compound that is named as a salt.

In the examples that follow, each entry is paired with its recorded IC50 cell viability.
Query string: // query IC50 cell viability value for entry O=C1[C@@H]2[C@H]3CC[C@H](C3)[C@@H]2C(=O)N1C[C@@H]1CCCC[C@H]1CN1CCN(c2nsc3ccccc23)CC1 [Lurasidone (Hydrochloride)]
Result string: > 45.8 µM

Query string: # iterate: COc1cc(C(=O)OCCCN2CCCN(CCCOC(=O)c3cc(OC)c(OC)c(OC)c3)CC2)cc(OC)c1OC [Dilazep]
Result string: > 45.8 µM

Query string: # iterate: O=C(O)c1cc(O)c2c3nc4ccccc4oc-3cc(=O)c2n1 [Pirenoxine Sodium]
Result string: > 45.8 µM

Query string: # iterate: CC(CNC1CCCCC1)OC(=O)c1ccccc1 (configuration not stated) [Hexylcaine hydrochloride]
Result string: > 45.8 µM

Query string: # iterate: CC(C)C(=O)Nc1ccc([N+](=O)[O-])c(C(F)(F)F)c1 [Flutamide]
Result string: > 45.8 µM

Next:
Query string: // query IC50 cell viability value for entry CC[C@@H]1C(=O)OC[C@@H]1Cc1cncn1C [Pilocarpine]
Result string: > 45.8 µM

Query string: # iterate: COC(=O)C1=C(C)NC(C)=C(C(=O)OCC(C)C)C1c1ccccc1[N+](=O)[O-] (configuration not stated) [Nisoldipine]
Result string: 18.3 µM

Query string: # iterate: CCCCCCCCCCCCC[N+](C)(C)Cc1ccccc1 [BENZALKONIUM CHLORIDE]
Result string: 20.6 µM

Query string: # iterate: CC(C)(C#N)c1cc(Cn2cncn2)cc(C(C)(C)C#N)c1 [Anastrozole]
Result string: > 45.8 µM

---

Measured IC50 cell viability of individual entries
- Test system: HCT116
- measurement.conditions: 72 h; ICRF193 0 nM

In the examples that follow, each entry is paired with its recorded IC50 cell viability.
Query string: // query IC50 cell viability value for entry NNC(=O)c1ccncc1 [Isoniazid]
Result string: > 45.8 µM

Query string: # iterate: CCCCC/C=C/C/C=C/CCCCCCCC(=O)NC(C)c1ccccc1 (stereo unspecified) [Melinamide]
Result string: > 45.8 µM

Query string: # iterate: CCCCC(=O)O[C@]1(C(=O)CO)[C@@H](C)C[C@H]2[C@@H]3CCC4=CC(=O)C=C[C@]4(C)[C@@]3(F)[C@@H](O)C[C@@]21C [Betamethasone valerate]
Result string: > 45.8 µM

Field: next compound
Query string: // query IC50 cell viability value for entry CCC(=O)O[C@H]1CC[C@H]2[C@@H]3CCC4=CC(=O)CC[C@]4(C)[C@H]3CC[C@]12C [Testosterone propionate]
Result string: > 45.8 µM

---

- System: HCT116
- test: efficacy (maximum % inhibition of viability vs DMSO); higher = more cytotoxic
- measurement.conditions: 72 h; ICRF193 200 nM
Counter-ions that a name gives are not always drawn.
readout.type: efficacy (%)
Give the number; % is assumed, so skip it.

Query string: // query efficacy value for entry C/C(=C(/OCCOc1ccc(Cl)cc1)c1ccc(Cl)cc1Cl)n1ccnc1 [Omoconazole]
Result string: 62.4

Next:
Query string: // query efficacy value for entry CC(=O)N(O)CCCCCNC(=O)CCC(=O)N(O)CCCCCNC(=O)CCC(=O)N(O)CCCCCN [Deferoxamine mesylate]
Result string: 105

Query string: # iterate: Oc1ccc(CCNCCCCCCNCCc2ccccc2)cc1O [Dopexamine]
Result string: 47.3

---

- System: HCT116
- measurement.conditions: 72 h; ICRF193 0 nM
Where a name gives a salt, the structure may show the parent alone.
readout.type: IC50 cell viability

Query string: // query IC50 cell viability value for entry `Oc1ccc([C@@H]2CNCc3c2ccc(O)c3O)cc1O`
Result string: > 45.8 µM

Next:
Query string: // query IC50 cell viability value for entry CC(=O)O[C@]1(C(C)=O)CC[C@H]2[C@@H]3C=C(Cl)C4=CC(=O)[C@@H]5C[C@@H]5[C@]4(C)[C@H]3CC[C@@]21C [Cyproterone acetate]
Result string: > 45.8 µM

Query string: # iterate: CNC(C)Cc1ccccc1OC (stereo not drawn)
Result string: > 45.8 µM

Query string: # iterate: `CC(C)c1c(C(=O)Nc2ccccc2)c(-c2ccccc2)c(-c2ccc(F)cc2)n1CC[C@@H](O)C[C@@H](O)CC(=O)O`
Result string: 18.3 µM

Query string: # iterate: CC#CCC(C)[C@H](O)/C=C/[C@@H]1[C@H]2C/C(=C/CCCC(=O)O)C[C@H]2C[C@H]1O (stereo partly drawn)
Result string: > 45.8 µM

Query string: # iterate: CN(C)CC[C@@H](c1ccc(Cl)cc1)c1ccccn1 [Dexchlorpheniramine hydrochloride]
Result string: > 45.8 µM

Query string: # iterate: `C=C[C@@H]1C[C@]1(NC(=O)[C@@H]1C[C@@H]2CN1C(=O)[C@H](C(C)(C)C)NC(=O)O[C@@H]1C[C@H]1CCCCCc1nc3ccc(OC)cc3nc1O2)C(=O)NS(=O)(=O)C1CC1`
Result string: 29.1 µM

Query string: # iterate: CCOc1ccc(/N=C(\C)Nc2ccc(OCC)cc2)cc1 [Phenacaine hydrochloride]
Result string: > 45.8 µM

---

- Tested on: HCT116
- test: efficacy (maximum % inhibition of viability vs DMSO); higher = more cytotoxic
- measurement.conditions: 72 h; ICRF193 200 nM
readout.type: efficacy (%)
Give the number; % is assumed, so skip it.

In the examples that follow, each entry is paired with its recorded efficacy.
Query string: // query efficacy value for entry `[O-][n+]1cccc(/C(Cl)=N/OC[C@H](O)CN2CCCCC2)c1`
Result string: 65.4

Query string: # iterate: `CC[C@H]1OC(=O)C[C@@H](OC(C)=O)[C@H](C)[C@@H](O[C@@H]2O[C@H](C)[C@@H](O[C@H]3C[C@@](C)(O)[C@@H](OC(=O)CC(C)C)[C@H](C)O3)[C@H](N(C)C)[C@H]2O)[C@@H](CC=O)C[C@@H](C)C(=O)/C=C/C(C)=C/[C@@H]1CO[C@@H]1O[C@H](C)[C@@H](O)[C@@H](OC)[C@H]1OC`
Result string: 53.7

Query string: # iterate: CN1CCN2c3ccccc3Cc3ccccc3C2C1 (configuration not stated)
Result string: 62

Query string: # iterate: CC(CCc1ccc(O)cc1)NCCc1ccc(O)c(O)c1 (configuration not stated)
Result string: 83.3

Query string: # iterate: CC(=O)Oc1ccccc1C(=O)Nc1ncc([N+](=O)[O-])s1 [Nitazoxanide]
Result string: 122

Query string: # iterate: `COc1ccc(-n2nc(CCC(=O)N(C)O)cc2-c2ccc(Cl)cc2)cc1`
Result string: 88.3

Next:
Query string: // query efficacy value for entry `CN1CCN(CC/C=C2/c3ccccc3Sc3ccc(S(=O)(=O)N(C)C)cc32)CC1`
Result string: 126

---

Measured IC50 cell viability of individual entries
- System: HCT116
- measurement.conditions: 72 h; ICRF193 200 nM
Where a name gives a salt, the structure may show the parent alone.

In the examples that follow, each entry is paired with its recorded IC50 cell viability.
Query string: // query IC50 cell viability value for entry NCC(=O)CCC(=O)O [Aminolevulinic acid hydrochloride]
Result string: > 45.8 µM

Query string: # iterate: CC(=O)Nc1cccc(-n2c(=O)n(C3CC3)c(=O)c3c(Nc4ccc(I)cc4F)n(C)c(=O)c(C)c32)c1 [Trametinib]
Result string: 0.0206 µM

Query string: # iterate: CCCCCC1Nc2cc(C(F)(F)F)c(S(N)(=O)=O)cc2S(=O)(=O)N1 (centres undefined) [Penflutizide]
Result string: > 45.8 µM

Query string: # iterate: CN1CCN(CCCN2c3ccccc3Sc3ccccc32)CC1 [Perazine]
Result string: 35.5 µM

Query string: # iterate: CCCC1C(=O)N2C(N(C)C)=Nc3ccc(C)cc3N2C1=O (centres undefined) [Azapropazone]
Result string: > 45.8 µM

Query string: # iterate: O=C(O[C@H]1CN2CCC1CC2)N1CCc2ccccc2[C@@H]1c1ccccc1 [Solifenacin (hydrochloride)]
Result string: > 45.8 µM

Query string: # iterate: COCCc1ccc(OCC(O)CNC(C)C)cc1 (centres undefined) [Metoprolol tartrate]
Result string: > 45.8 µM

Query string: # iterate: COc1ccc(C(=O)c2ccccc2)c(O)c1 [2-Hydroxy-4-methoxybenzophenone]
Result string: > 45.8 µM

Next:
Query string: // query IC50 cell viability value for entry CN1CCN(C(c2ccccc2)c2ccccc2)CC1 [Cyclizine hydrochloride]
Result string: > 45.8 µM

---

- Tested on: HCT116
- measurement.conditions: 72 h; ICRF193 0 nM
Structures can show the parent of a compound that is named as a salt.
readout.type: IC50 cell viability

Query string: // query IC50 cell viability value for entry CCCCC[C@H](O)/C=C/[C@@H]1[C@H]2C/C(=C/CCCC(=O)O)O[C@H]2C[C@H]1O [Epoprostenol sodium]
Result string: > 45.8 µM

Query string: # iterate: `C=C(C)[C@@H]1CCC(C)=C[C@H]1c1c(O)cc(CCCCC)cc1O`
Result string: 20.6 µM

Query string: # iterate: O=C(O)CCCCC1CCSS1 (stereo not given)
Result string: > 45.8 µM

Query string: # iterate: COc1c2c(cc3c1OCO3)CCN(C)C2 [Hydrocotarnine hydrobromide]
Result string: > 45.8 µM

Query string: # iterate: CC[N+](CC)(CCNC(=O)C(=O)NCC[N+](CC)(CC)Cc1ccccc1Cl)Cc1ccccc1Cl [Ambenonium chloride]
Result string: > 45.8 µM
